Hello, the source for this data is ChEMBL document CHEMBL1129193, in case you need it.

This section presents compounds with their documented CC50 values.
# Test system: CCRF-CEM
# measurement-description: Concentration of compound required to reduce viability of CEM/0 cells by 50%.
# Type: functional
# conditions-used: Homo sapiens
Answer format: numeric, µM implied, no suffix.

Consider the reported CC50 for these compounds:
>>> value("C=CCOC(=O)CC1(CC(=O)OCC2C=CC(n3cc(C)c(=O)[nH]c3=O)O2)OCOC1=O (stereo not given)")
179
>>> value("Cc1cn(C2C=CC(COC(=O)CC(O)(CC(=O)OCc3ccccc3)C(=O)OCc3ccccc3)O2)c(=O)[nH]c1=O (stereo not given)")
64
>>> value("Cc1cn(C2C=CC(COC(=O)CC(O)(CC(=O)O)C(=O)O)O2)c(=O)[nH]c1=O (stereo not given)")
209
>>> value("COC(=O)CC1(CC(=O)OCC2C=CC(n3cc(C)c(=O)[nH]c3=O)O2)OCOC1=O (stereo not given)")
100
>>> value("C=CCOC(=O)CC(O)(CC(=O)OCC1C=CC(n2cc(C)c(=O)[nH]c2=O)O1)C(=O)OCC=C (stereo not given)")
69

Shifting focus to the compound that follows.
[in] Return CC50 for the following compound: Cc1cn(C2C=CC(COC(=O)CC3(CC(=O)OCc4ccccc4)OCOC3=O)O2)c(=O)[nH]c1=O (stereo not given)
[out] 92.8
